pKi: −log10 of the molar value.
Compiled record: pKi values for Alpha-1A adrenergic receptor (Homo sapiens, UniProt P35348) across several sources.
METRIC: pKi

Examples with their reported pKi follow.
Value of measured pKi for the entry CC(C)Oc1ccccc1N1CCN([C@H]2CC[C@H](NC(=O)NCc3cccc(F)c3)CC2)CC1 : 7.97

Entry O=C(NCCCNC(=O)[C@@H]1[C@H]2C[C@H]3c4[nH]c5ccccc5c4CCN3C[C@@H]2CC[C@@H]1O)[C@@H]1[C@H]2C[C@H]3c4[nH]c5ccccc5c4CCN3C[C@@H]2CC[C@@H]1O , pKi reported as 4.77

Measured pKi of CC(C)Oc1ccccc1N1CCN([C@H]2CC[C@H](NC(=O)Nc3c(Cl)cc(Cl)cc3Cl)CC2)CC1 : 8.19

The compound identified as Cc1c(Cl)cccc1S(=O)(=O)N[C@H]1CC[C@H](N2CCN(c3ccccc3OC(C)C)CC2)CC1 registered its pKi at 8.96

Short answer for CC(C)Oc1ccccc1N1CCN([C@H]2CC[C@H](NS(=O)(=O)c3ccc(F)c(Cl)c3)CC2)CC1 : pKi was 8.18

A = CC(C)Oc1ccccc1N1CCN([C@H]2CC[C@H](NS(=O)(=O)c3cccc(F)c3)CC2)CC1
B = CC(C)Oc1ccccc1N1CCN([C@H]2CC[C@@H](NC(=O)Nc3c(Cl)cc(Cl)cc3Cl)CC2)CC1
Lab note: check whether A or B shows the higher recorded pKi. Give the label under which the chosen entry appears.
A

A = CC(C)Oc1ccccc1N1CCN([C@H]2CC[C@@H](NS(=O)(=O)Cc3ccccc3)CC2)CC1
B = CC(C)Oc1ccccc1N1CCN([C@H]2CC[C@@H](NC(=O)Nc3ccc(F)c(F)c3)CC2)CC1
C = CC(C)Oc1ccccc1N1CCN([C@H]2CC[C@@H](NS(=O)(=O)c3cccc4cccnc34)CC2)CC1
D = COc1ccc(Cl)cc1S(=O)(=O)N[C@H]1CC[C@H](N2CCN(c3ccccc3OC(C)C)CC2)CC1
Parameters: sort_field (pKi), sort_dir (desc). Form entry: ranked labels (order as requested).
A, D, C, B
(A: 8.92, D: 8.42, C: 8.08, B: 7.30)

A = CC(C)Oc1ccccc1N1CCN([C@H]2CC[C@@H](NS(=O)(=O)c3ccccc3C(F)(F)F)CC2)CC1
B = CC(C)Oc1ccccc1N1CCN([C@H]2CC[C@@H](NC(=O)Nc3ccc(F)cc3F)CC2)CC1
pKi comparison. Which is larger, A or B ? Return value: the label identifying the chosen record.
B
(B: 7.85, A: 7.64)

====

pKi: −log10 of the molar value.
Listing of pKi toward Alpha-1A adrenergic receptor (Homo sapiens), each taken from a published source.

For orientation, consider the following solved cases.
Observed pKi on Alpha-1A adrenergic receptor (Homo sapiens), entry COCC1=C(C(=O)OC)[C@H](c2ccc(F)c(F)c2)N(C(=O)NCCCN2CCC3(CC2)c2ccccc2S(=O)(=O)c2ccccc23)C(=O)N1 , equals > 7.70

Alpha-1A adrenergic receptor (Homo sapiens) pKi of Cc1ccc(C2(c3ccccc3)NC(=O)N(CCCN3CCC(C#N)(c4ccccc4)CC3)C2=O)cc1 (racemic) is > 7.70

Considering COCC1=C(C(=O)OC)[C@H](c2ccc(F)c(F)c2)N(C(=O)NCCCN2CCC3(CC2)c2ccccc2-c2ccc(F)cc23)C(=O)N1 , its pKi with Alpha-1A adrenergic receptor (Homo sapiens) was recorded as > 7.70

Turning now to a further compound:
For CC(C)Oc1cccnc1N1CCN([C@H]2CC[C@@H](NS(=O)(=O)c3cc(Cl)ccc3F)CC2)CC1 on Alpha-1A adrenergic receptor (Homo sapiens), measured pKi was 7.35
